systemName: plasma kallikrein (PKa) (Homo sapiens)
Construct: purchased R & D 2497-SE
Sequence (P03952 391-638 limits assumed): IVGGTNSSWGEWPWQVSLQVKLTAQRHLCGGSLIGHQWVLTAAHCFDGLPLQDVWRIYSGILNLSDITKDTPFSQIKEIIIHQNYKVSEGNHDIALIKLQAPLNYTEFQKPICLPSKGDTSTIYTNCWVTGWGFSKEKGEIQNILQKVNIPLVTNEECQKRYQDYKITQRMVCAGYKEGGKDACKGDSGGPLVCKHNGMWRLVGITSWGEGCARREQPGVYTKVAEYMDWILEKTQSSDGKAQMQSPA
Sequence (P03952 20-390 partner limits assumed): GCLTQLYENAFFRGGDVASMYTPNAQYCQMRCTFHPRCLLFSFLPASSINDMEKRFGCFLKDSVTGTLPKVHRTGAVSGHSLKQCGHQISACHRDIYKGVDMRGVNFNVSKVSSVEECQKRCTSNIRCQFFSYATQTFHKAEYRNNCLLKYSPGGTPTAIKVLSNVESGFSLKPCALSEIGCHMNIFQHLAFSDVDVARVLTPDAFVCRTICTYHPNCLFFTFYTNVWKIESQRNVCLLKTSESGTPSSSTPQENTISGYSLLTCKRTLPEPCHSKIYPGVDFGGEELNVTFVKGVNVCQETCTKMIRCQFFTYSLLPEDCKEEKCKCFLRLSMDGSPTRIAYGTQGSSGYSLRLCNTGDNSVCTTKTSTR
protocolSummary: Inhibitory activity against plasma kallikrein in vitro (fluorescence intensity enzyme assay, Pro-Phe-Arg-AMC substrate)
Type: biochemical
measurementSetup: plasma kallikrein enzyme assay, Pro-Phe-Arg-AMC substrate; read-out: PKa IC50
Catalogue of pIC50 readings, one per entry.
Notebook: values listed as pIC50 are -log10 of the concentration (mol/L).

COCc1nn(Cc2ccc(Oc3ccccc3)cc2)cc1C(=O)NCc1cc2ccncc2[nH]1; 7.07
Cn1c(CNC(=O)c2cn(Cc3ccc(Cn4ccccc4=O)cc3)nc2C(F)(F)F)cc2cnccc21; 7.82

Lookup: # value lookup — system plasma kallikrein (PKa) (Homo sapiens), readout pIC50, item O=C(NCc1ncc2c(c1F)NCC2)c1cnn(Cc2ccc(Cn3ccccc3=O)cc2)c1
Found: 8.66

Lookup: # value lookup — system plasma kallikrein (PKa) (Homo sapiens), readout pIC50, item O=C(NCc1cc2cnccc2[nH]1)c1cn(Cc2ccc(Cn3ccccc3=O)cc2)nc1C(F)(F)F
Found: 7.53

Lookup: # value lookup — system plasma kallikrein (PKa) (Homo sapiens), readout pIC50, item COc1ccc(F)c(CNC(=O)c2cn(Cc3ccc(Cn4ccccc4=O)cc3)nc2C2CC(C)(OC)C2)c1F (stereo not shown)
Found: 8.08

Lookup: # value lookup — system plasma kallikrein (PKa) (Homo sapiens), readout pIC50, item N=C(N)c1ccc(CNC(=O)c2cnn(Cc3ccc(N4CCC(F)(F)CC4)c(C(F)(F)F)c3)c2)cc1
Found: 10.10

Lookup: # value lookup — system plasma kallikrein (PKa) (Homo sapiens), readout pIC50, item N=C(N)c1ccc(CNC(=O)c2cnn(Cc3ccc(N4CCOCC4)c(C(F)(F)F)c3)c2)cc1
Found: 9.74
